- assay-system: sGC α1/β1 heterodimer (Homo sapiens, UniProt Q02108+Q02153)
- Construct: expressed in transfected cells
- Sequence (Q02108 1-690): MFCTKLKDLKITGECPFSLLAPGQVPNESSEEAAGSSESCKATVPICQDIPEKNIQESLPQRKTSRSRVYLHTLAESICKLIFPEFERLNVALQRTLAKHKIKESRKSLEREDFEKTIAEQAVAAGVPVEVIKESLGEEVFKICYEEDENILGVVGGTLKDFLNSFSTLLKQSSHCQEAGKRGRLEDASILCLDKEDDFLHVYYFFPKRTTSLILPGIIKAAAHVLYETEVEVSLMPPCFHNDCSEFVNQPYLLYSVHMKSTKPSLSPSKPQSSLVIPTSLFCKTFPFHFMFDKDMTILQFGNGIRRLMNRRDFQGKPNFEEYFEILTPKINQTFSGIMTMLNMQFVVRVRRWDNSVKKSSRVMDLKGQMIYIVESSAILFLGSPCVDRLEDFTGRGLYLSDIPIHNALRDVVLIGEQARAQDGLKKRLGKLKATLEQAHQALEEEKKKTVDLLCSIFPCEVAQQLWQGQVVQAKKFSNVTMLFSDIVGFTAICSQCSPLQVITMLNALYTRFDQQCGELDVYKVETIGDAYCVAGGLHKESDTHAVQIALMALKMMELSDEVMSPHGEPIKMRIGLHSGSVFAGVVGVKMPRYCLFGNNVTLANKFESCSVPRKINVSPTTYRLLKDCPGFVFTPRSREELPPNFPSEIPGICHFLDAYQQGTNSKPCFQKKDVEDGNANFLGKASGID
- Sequence (Q02153 1-619): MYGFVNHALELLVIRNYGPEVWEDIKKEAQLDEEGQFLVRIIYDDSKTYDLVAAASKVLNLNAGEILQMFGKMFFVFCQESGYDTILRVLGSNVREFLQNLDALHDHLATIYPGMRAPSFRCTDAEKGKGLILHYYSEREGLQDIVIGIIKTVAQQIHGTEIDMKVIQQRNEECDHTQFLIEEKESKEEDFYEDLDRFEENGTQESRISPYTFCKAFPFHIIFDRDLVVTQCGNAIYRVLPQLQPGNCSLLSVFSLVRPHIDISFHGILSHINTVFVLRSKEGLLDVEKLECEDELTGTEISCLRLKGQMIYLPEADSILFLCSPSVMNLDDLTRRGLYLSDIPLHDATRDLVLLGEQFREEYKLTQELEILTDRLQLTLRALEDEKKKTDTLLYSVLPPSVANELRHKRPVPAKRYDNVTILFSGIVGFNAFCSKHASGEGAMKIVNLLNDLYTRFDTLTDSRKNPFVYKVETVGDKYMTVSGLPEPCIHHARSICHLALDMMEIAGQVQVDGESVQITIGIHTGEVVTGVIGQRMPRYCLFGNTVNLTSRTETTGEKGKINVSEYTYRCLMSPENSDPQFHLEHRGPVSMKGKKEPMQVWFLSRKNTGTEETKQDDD
- assay-details: Cell-Based sGC Functional Assay (CASA Assay), cGMP generation in CHO-K1/sGC cells;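 further: reference Compound A is a published heme-dependent sGC activator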
- condition-summary: maximum cGMP production of Compound A set to 100% activation, read-out: % Act. (percent activation relative to Compound A)
quantity-kind: Emax (%)
Hi! Could you send only the number? It should be in %, unit omitted.

{"columns": ["compound", "Emax / %"],
 "data": [
  ["CCCCc1nc(-c2nc(N)c3c(n2)NC(=O)C3(C)c2ccc(Cl)cn2)cn2ncnc12 (stereo not shown) [Example 69A]", 158]
]}

**Query** Entry CCCc1nc(-c2nc(N)c3c(n2)NC(=O)[C@@]3(C)c2ccc(F)cc2)cn2ncnc12 [Example 52A] : reported Emax = ?
**Result** 96

**Query** # query: Emax of entry CC1(c2ccccc2)C(=O)Nc2nc(-c3cn4ncnc4c(CCCC(F)(F)F)n3)nc(O)c21 (stereo not shown) [Example 143B]
**Result** 114

**Query** Need Emax, item CCCCc1nc(-c2nc(N)c3c(n2)NC(=O)C3(c2ccc(F)c(F)c2)C2CC2)cn2ncnc12 (stereo not shown) [Example 65A]
**Result** 104

**Query** Can you look up the measured Emax of Nc1nc(-c2cn3ncnc3c(CCC(F)(F)C(F)(F)F)n2)nc2c1C(c1cn(C3CC3)nn1)(C1CC1)C(=O)N2 (stereo not shown) [Example 96B] for me?
**Result** 108

**Query** Any idea what its Emax is? The compound is CCCc1nc(-c2nc(N)c3c(n2)NC(=O)C3(C)c2ccc(Cl)cc2)cn2nc(C)nc12 (stereo not shown) [Example 93A]
**Result** 159

**Query** Which Emax value is on record for CC1(c2ccc(C#N)cn2)C(=O)Nc2nc(-c3cn4ncnc4c(CCC(F)(F)C(F)(F)F)n3)nc(N)c21 (stereo not shown) [Example 18A] ?
**Result** 75
